test: Drug level in SRH rat plasma a 1 mg/kg , po measured after 4 hrs; type: ADME, organism-based
measure: concentration at 4 h (nM)
The answer is to be given in nM; state only the numeric part.

Query block: Entry under review: CC1(C)C(=O)Nc2nc(-n3nc(CCC(F)(F)F)c4cc(Cl)ccc43)nc(N)c21 . Reported concentration at 4 h?
Result block: 145

----------
assay: Oral bioavailability in rat at 2 mg/kg; assay type: ADME, organism-based; conditions: in vivo
measure: bioavailability (%)
The answer is to be given in %; state only the numeric part.

Query block: Entry under review: COC(=O)N(C)c1c(N)nc(-c2nc(Cc3ccccc3F)n3ccccc23)nc1N . Reported bioavailability?
Result block: 15

Query block: What do you have for CC1(C)C(=O)Nc2nc(-n3nc(CCC(F)(F)F)c4cc(Cl)ccc43)nc(N)c21 ?
Result block: 80

Query block: What do you have for COC(=O)N(C)c1c(N)nc(-c2nc(Cc3ccccc3F)n3ncccc23)nc1N ?
Result block: 4

Query block: What do you have for COC(=O)N(C)c1c(N)nc(-n2nc(Cc3ccccc3F)c3ccccc32)nc1N ?
Result block: 32

----------
experiment: Half life in rat at 1 mg/kg, iv and 2 mg/kg, po; assay type: ADME, organism-based; settings: in vivo
measure: half-life

Query block: Entry under review: COC(=O)N(C)c1c(N)nc(-c2nc(Cc3ccccc3F)n3ccccc23)nc1N . Reported half-life?
Result block: 54 min

Query block: What do you have for COC(=O)N(C)c1c(N)nc(-n2nc(Cc3ccccc3F)c3ccccc32)nc1N ?
Result block: 54 min

Query block: What do you have for COC(=O)N(C)c1c(N)nc(-c2nc(Cc3ccccc3F)n3ncccc23)nc1N ?
Result block: 36 min

----------
experiment: Oral bioavailability in monkey at 2 mg/kg, po; type: ADME, organism-based, Macaca mulatta; conditions: rhesus monkey, in vivo
measure: bioavailability
Be sure to follow the number with its unit.

Query block: Entry under review: CC1(C)C(=O)Nc2nc(-n3nc(CCC(F)(F)F)c4cc(Cl)ccc43)nc(N)c21 . Reported bioavailability?
Result block: 63%

----------
assay: Oral bioavailability in Sprauge-Dawley rat; type: ADME, organism-based; conditions: Sprague-Dawley, in vivo
So I've got a bunch of compounds here, and I need their bioavailability values.
The answer is to be given in %; state only the numeric part.

Query block: Entry under review: COC(=O)N(C)c1c(N)nc(-n2nc(Cc3c(F)ccc(F)c3F)c3ccccc32)nc1N . Reported bioavailability?
Result block: 68

Query block: What do you have for COC(=O)N(C)c1c(N)nc(-n2nc(Cc3c(F)ccc(F)c3F)c3cc(Cl)ccc32)nc1N ?
Result block: 51

Query block: What do you have for COC(=O)N(C)c1c(N)nc(-n2nc(Cc3ccccc3F)c3cc(F)ccc32)nc1N ?
Result block: 22

Query block: What do you have for COC(=O)Nc1c(N)nc(-n2nc(Cc3c(F)ccc(F)c3F)c3cc(Cl)ccc32)nc1N ?
Result block: 37

----------
experiment: Half life in rat at 2 mg/kg, po; type: ADME, organism-based; details: in vivo
measure: half-life (h)
The answer is to be given in h; state only the numeric part.

Query block: Entry under review: CC1(C)C(=O)Nc2nc(-n3nc(CCC(F)(F)F)c4cc(Cl)ccc43)nc(N)c21 . Reported half-life?
Result block: 2.6
